Known CD28 scFv signal in presence of CD28 of a selection of binders
Target: T1, Anti-CD28 scFv (VH - linker 1 - VL) (biotinylated (site not stated))
T1 construct: Biotinylated anti-CD28 scFv captured on neutravidin coated plates in the panning ELISA
T1 sequence (scFv, as listed by the source): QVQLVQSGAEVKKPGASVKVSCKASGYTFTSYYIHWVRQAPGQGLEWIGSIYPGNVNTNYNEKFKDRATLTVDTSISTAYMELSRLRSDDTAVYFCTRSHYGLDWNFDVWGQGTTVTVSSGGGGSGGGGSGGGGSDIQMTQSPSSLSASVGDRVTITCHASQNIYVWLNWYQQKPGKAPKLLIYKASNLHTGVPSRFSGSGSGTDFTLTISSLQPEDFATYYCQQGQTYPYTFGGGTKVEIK
Test: phage ELISA as above; wells pre-incubated with soluble CD28 as competitor;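 note: crude clonal phage supernatants tested, with bound phage detected by HRP-conjugated anti-M13 antibody, and reference wells given blocking buffer without CD28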

- BINDER: "MDWCPTYLWNECFN (Clonal phage of the Peptide-9 library) [Phage-320]"
  CD28 scFv signal in presence of CD28: 0.606
- BINDER: "MDWCPRALWNVCFA (Clonal phage of the Peptide-9 library; also called the position column gives N at position 14)) [Phage-329]"
  CD28 scFv signal in presence of CD28: 0.249
- BINDER: "MDWCPRSLWNYCFN (Clonal phage of the Peptide-9 library) [Phage-313]"
  CD28 scFv signal in presence of CD28: 0.209
- BINDER: "MDWCPRHLWDECFY (Clonal phage of the Peptide-9 library) [Phage-331]"
  CD28 scFv signal in presence of CD28: 0.146
- BINDER: "MDWCPRFLWDYCFA (Clonal phage of the Peptide-9 library) [Phage-335]"
  CD28 scFv signal in presence of CD28: 0.207
- BINDER: "MHWCPRDLWHVCFN (Clonal phage of the Peptide-9 library) [Phage-327]"
  CD28 scFv signal in presence of CD28: 0.15
- BINDER: "MDWCPRDLWDECFN (Clonal phage of the Peptide-9 library) [Phage-310]"
  CD28 scFv signal in presence of CD28: 0.248
- BINDER: "MDWCPRSLWNYCFA (Clonal phage of the Peptide-9 library) [Phage-316]"
  CD28 scFv signal in presence of CD28: 0.198
